- SYSTEM NAME: T1, HLA-A*0201 (human)
- T1 construct: also called HLA-A2
- TEST SUMMARY: listed as presented with class I MHC on cancer cells (leukemia or transformed B cells)
Non-standard residues stand in square brackets, D forms with d. No end group written: not given here. pS = N[C@@H](COP(=O)(O)O)C(=O)O
READOUT: binding result

[
  {
    "BINDER": "KVA[pS]LLHQV [KVAsLLHQV]",
    "READOUT": "binding result",
    "ENDPOINT RESULT": "binds"
  },
  {
    "BINDER": "KLMAPDI[pS]L [KLMAPDIsL]",
    "READOUT": "binding result",
    "ENDPOINT RESULT": "binds"
  },
  {
    "BINDER": "YQL[pS]PTKLPSI (From Nibrin/cell cycle regulatory protein p95, UniProt O60934) [YQLsPTKLPSI]",
    "READOUT": "binding result",
    "ENDPOINT RESULT": "binds"
  },
  {
    "BINDER": "ALG[pS]RESLATI [ALGsRESLATI]",
    "READOUT": "binding result",
    "ENDPOINT RESULT": "binds"
  },
  {
    "BINDER": "GLL[pS]PARLYAI (From Leucine rich PPR-motif containing protein, UniProt P42704) [GLLsPARLYAI]",
    "READOUT": "binding result",
    "ENDPOINT RESULT": "binds"
  },
  {
    "BINDER": "GGSFGGRSSG[pS]P (From HNRNPA3, UniProt P51991) [GGSFGGRSSGsP]",
    "READOUT": "binding result",
    "ENDPOINT RESULT": "binds"
  },
  {
    "BINDER": "AVIHQ[pS]LGL (From Protein CNPPD1, UniProt Q9BV87) [AVIHQsLGL]",
    "READOUT": "binding result",
    "ENDPOINT RESULT": "binds"
  },
  {
    "BINDER": "RLA[pS]LNAEAL (From Bromo adjacent homology domain-containing 1 protein, UniProt Q8TBE0) [RLAsLNAEAL]",
    "READOUT": "binding result",
    "ENDPOINT RESULT": "binds"
  },
  {
    "BINDER": "RQA[pS]LSISV (From Protein kinase 2D, UniProt A0JLT6) [RQAsLSISV]",
    "READOUT": "binding result",
    "ENDPOINT RESULT": "binds"
  },
  {
    "BINDER": "KLF[pS]PSKEAEL (From Protein cramped-like, UniProt Q96RY5) [KLFsPSKEAEL]",
    "READOUT": "binding result",
    "ENDPOINT RESULT": "binds"
  },
  {
    "BINDER": "AMLGSK[pS]PDPYRL (From Protein SON, UniProt P18583) [AMLGSKsPDPYRL]",
    "READOUT": "binding result",
    "ENDPOINT RESULT": "binds"
  },
  {
    "BINDER": "DS[pS]EEKFL (From Statherin (saliva), UniProt P02808) [DSsEEKFL]",
    "READOUT": "binding result",
    "ENDPOINT RESULT": "binds"
  },
  {
    "BINDER": "RPRSLSSPTVTL (also: one of Ser4, Ser6, Ser7 phosphorylated, From E3 ubiquitin-protein ligase NEDD4-like, UniProt Q96PU5) [RPR(sLss)PTVTL]",
    "READOUT": "binding result",
    "ENDPOINT RESULT": "binds"
  },
  {
    "BINDER": "KVL[pS]TEEMEL (From Protein FAM128B, UniProt Q6NZ67) [KVLsTEEMEL]",
    "READOUT": "binding result",
    "ENDPOINT RESULT": "binds"
  },
  {
    "BINDER": "ALD[pS]GASLLHL [ALDsGASLLHL]",
    "READOUT": "binding result",
    "ENDPOINT RESULT": "binds"
  },
  {
    "BINDER": "RTY[pS]GPMNKV (From POF1B, UniProt Q8WVV4) [RTYsGPMNKV]",
    "READOUT": "binding result",
    "ENDPOINT RESULT": "binds"
  }
]

meta.source: patent US20150224182A1
